# Tested on: MALME-3M
# assay_procedure: cells
# experimental_parameters: Homo sapiens, 48 h, read-out: LC50
measurement_type: log10(CC50) (log10 of the value in µM)
Please keep in mind that the values are log10 of CC50 expressed in µM.

Could you tell me which log10(CC50) is on file for CN(C)c1nc(NCCNS(=O)(=O)c2ccc(C3=Nc4c(N)nc(N)nc4NC(c4ccc(Cl)cc4)C3)cc2)nc(Nc2ccc(F)cc2)n1 (stereo not shown) [31e] ?
1.28

Field entry: COc1cc(/C=C/C(=O)c2ccc(C)cc2)ccc1Oc1nc(Nc2ccc(F)cc2)nc(N(C)C)n1 [21b]
1.86

Item: Cc1ccc(C2CC(c3ccc(S(=O)(=O)NCCNc4nc(Nc5ccc(F)cc5)nc(N(C)C)n4)cc3)=Nc3c(N)nc(N)nc3N2)cc1 (stereo not shown) [31b]
1.52

Same thing, different molecule: Cc1ccc(C2CC(c3ccc(Nc4nc(NCCO)nc(Nc5ccc(Cl)cc5)n4)cc3)=Nc3c(N)nc(N)nc3N2)cc1 (stereo not shown) [33b]
0.83

Now the molecule COc1cc(/C=C/C(=O)c2cc(OC)c(OC)c(OC)c2)ccc1Oc1nc(NCCO)nc(N2CCOCC2)n1 [20d]
1.39

Now give it for CN(C)c1nc(NCCNS(=O)(=O)c2ccc(C(=O)/C=C/c3ccccc3)cc2)nc(N2CCOCC2)n1 [23a] too.
1.75
